Documented pIC50 across a set of molecules
molecular target: PIP4K2A (Homo sapiens, UniProt P48426); assay: Kinase Assay PIP4K2 A (Table 2); type: biochemical; design: 4 nM PIP4K2A (full length protein, SignalChem); purchased SignalChem; conditions: compounds listed under IC50 bins
Sequence (P48426 whole entry): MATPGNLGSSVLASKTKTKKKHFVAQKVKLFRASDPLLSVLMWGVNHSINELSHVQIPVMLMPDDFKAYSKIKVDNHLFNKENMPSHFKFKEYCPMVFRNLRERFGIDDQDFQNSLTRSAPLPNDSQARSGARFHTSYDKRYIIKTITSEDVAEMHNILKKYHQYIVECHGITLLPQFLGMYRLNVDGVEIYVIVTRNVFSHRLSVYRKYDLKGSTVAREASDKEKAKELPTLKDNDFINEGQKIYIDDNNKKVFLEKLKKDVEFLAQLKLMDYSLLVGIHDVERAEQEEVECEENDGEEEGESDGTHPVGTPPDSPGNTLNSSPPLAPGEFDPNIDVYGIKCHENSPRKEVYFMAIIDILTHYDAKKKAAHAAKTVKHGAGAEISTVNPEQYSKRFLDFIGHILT
pIC50: −log10 of the molar value.

>  <molecule>
CNC(=O)Nc1cncc(Nc2ccc(-c3ccc(C(=O)N(C)C)cc3)cn2)c1

>  <pIC50>
7.00 to 8.00

$$$$
>  <molecule>
CN(C)C(=O)c1ccc(-c2ccc(Nc3cncc(N4CCCC4=O)c3)nc2)cc1

>  <pIC50>
7.00 to 8.00

$$$$
>  <molecule>
Cn1cnnc1-c1ccc(-c2cnc(Nc3cnc4c(c3)N3C(=O)CC[C@H]3CO4)cc2C2CC2)cc1

>  <pIC50>
7.00 to 8.00

$$$$
>  <molecule>
CN(C)C(=O)c1ccc(-c2ccc(Nc3cncc(N(C)C(=O)C4CC4c4ccccc4)c3)nc2)cc1 (stereo not shown)

>  <pIC50>
7.00 to 8.00

$$$$
>  <molecule>
CN(C)C/C=C/C(=O)Nc1cccc(C(=O)Nc2cncc(Nc3ccc(-c4ccc(C(=O)N(C)C)cc4)cn3)c2)c1

>  <pIC50>
8.00 to 9.00

$$$$
>  <molecule>
CN(C)C(=O)c1ccc(-c2ccc(Nc3cncc(N4CCC(Cc5cccc(N)c5)C4=O)c3)nc2)cc1 (stereo not shown)

>  <pIC50>
7.00 to 8.00

$$$$
>  <molecule>
CN(C)C(=O)c1ccc(-c2ccc(Nc3cncc(N4CCN(CC5CC5)C4=O)c3)nc2)cc1

>  <pIC50>
7.00 to 8.00

$$$$
>  <molecule>
O=C1CCCN1c1ccc(-c2ccc(Nc3cncc(N4CCN(Cc5cocn5)C4=O)c3)nc2)cc1

>  <pIC50>
7.00 to 8.00

$$$$
>  <molecule>
CN(C)C(=O)c1ccc(-c2ccc(Nc3cncc(NC(=O)c4cccc(F)c4)c3)nc2)cc1

>  <pIC50>
7.00 to 8.00

$$$$
>  <molecule>
CN(C)C(=O)c1ccc(-c2ccc(Nc3cncc(C4(C(N)=O)CC4)c3)nc2)cc1

>  <pIC50>
6.00 to 7.00

$$$$
>  <molecule>
CN(C)C(=O)[C@H]1CC[C@@H](c2ccc(Nc3cccnc3)nc2)CC1

>  <pIC50>
< 6.00

$$$$
>  <molecule>
CCO[C@H]1C[C@@H]1C(=O)Nc1cncc(Nc2ccc(-c3ccc(N4CCCC4=O)cc3)cn2)c1

>  <pIC50>
8.00 to 9.00

$$$$
>  <molecule>
CN(C)C(=O)c1ccc(-c2ccc(Nc3cncc(NC(=O)c4ccccc4)c3)nc2)cc1

>  <pIC50>
7.00 to 8.00

$$$$
>  <molecule>
CN(C)C(=O)Cc1cncc(Nc2ccc(-c3ccc(C(=O)N(C)C)cc3)cn2)c1

>  <pIC50>
6.00 to 7.00

$$$$
>  <molecule>
CN(C)C(=O)c1ccc(-c2ccc(Nc3ccc(=O)n(Cc4ccccc4)c3)nc2)cc1

>  <pIC50>
< 6.00

$$$$
>  <molecule>
CN(C)C(=O)c1ccc(-c2ccc(Nc3cncc(NS(C)(=O)=O)c3)nc2)cc1

>  <pIC50>
7.00 to 8.00

$$$$
